# Subject Of Test: T1, human VISTA (human, UniProt Q9H7M9 33-194, limits assumed)
# T1 construct: The ELISA text says only recombinant VISTA; also called recombinant VISTA
# Method Description: method not stated (Table 1, column Kd, M)
Listing: pKd of selected binders
Please report pKd as the negative decimal logarithm of the molar concentration, giving only the number.

[[record]]
binder = "INX905 | VSTB53 (antibody, V domains shown, INX name = the VSTB variable regions with human IgG2 constant regions) VH: QVQLVQSGAEVKKPGASVKVSCKASGYTFTHYTIHWVRQAPGQGLEWMGYIIPSSGYSEYNQKFKDRVTMTRDTSTSTVYMELSSLRSEDTAVYYCARGAYDDYYDYYAMDYWGQGTLVTVSS VL: DIVMTQSPLSLPVTPGEPASISCRSSQTIVHSNGNTYLEWYLQKPGQSPQLLIYKVSNRFSGVPDRFSGSGSGTDFTLKISRVEAEDVGVYYCFQASHVPWTFGQGTKLEIK"
measurement_kind = "pKd"
reported_value = 10.58


Req: Which measured pKd value corresponds to INX917 | VSTB110 (antibody, V domains shown) VH: QVQLVQSGAEVKKPGSSVKVSCKASGGTFSSYAISWVRQAPGQGLEWMGGIIPIFGTANYAQKFQGRVTITADESTSTAYMELSSLRSEDTAVYYCARHSIGWVAELDYWGQGTLVTVSS VL: DIQMTQSPSSLSASVGDRVTITCRASQSINTDLNWYQQKPGKAPKLLIYAASSLQSGVPSRFSGSGSGTDFTLTISSLQPEDFATYYCQQGASDPITFGQGTKVEIKR ?
Resp: 9.69

Req: Suppose we examine the binder INX903 | VSTB95 (antibody, V domains shown, INX903 = VSTB95 variable regions with wild-type human IgG2 constant regions) VH: EVQLVESGGGLVQPGGSLRLSCAASGFTFRNYGMSWVRQAPGKGLEWVASIISGGSYTYYPDSVKGRFTISRDNAKNSLYLQMNSLRAEDTAVYYCARIYDHDGDYYAMDYWGQGTTVTVSS VL: DIVMTQSPLSLPVTPGEPASISCRSSQSIVHSNGNTYLEWYLQKPGQSPQLLIYKVSNRFSGVPDRFSGSGSGTDFTLKISRVEAEDVGVYYCFQGSHVPWTFGQGTKLEIK ; what pKd value has been reported?
Resp: 9.90

Req: Would you mind telling me what pKd value was observed for INX901 | VSTB56 (antibody, V domains shown, INX name = the VSTB variable regions with native human IgG2 constant regions; also called INX901 parental) VH: QVQLVQSGAEVKKPGASVKVSCKASGYTFTSYWLHWVRQAPGQGLEWMGYIIPNTLHTDYNQKFKDRVTMTRDTSTSTVYMELSSLRSEDTAVYYCARLDGDYDYALDYWGQGTLVTVSS VL: DIVMTQTPLSLSVTPGQPASISCRASESVEYYGTSFMQWYLQKPGQPPQLLIYTASNVESGVPDRFSGSGSGTDFTLKISRVEAEDVGVYYCQQSRKVPYTFGQGTKLEIK ?
Resp: 10.63
